B1: EDARADD (parent)
chain: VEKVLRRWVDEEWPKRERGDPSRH

Variants of: B1
testProtocol: protein stability index of a GFP-peptide fusion (GPS, HEK-293T) (PSI 1-6); higher = more stable;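 further: lentivirally expressed fusions sorted by FACS into six bins by GFP to DsRed ratio, PSI derived from sequencing read proportions per bin multiplied by bin number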
conditionSummary: c terminus: a fixed tail appended
Could you please report measured protein stability index for the items listed next?
Numbers only.

>>> df
                         residues  measuredresult
0  VEKVLRTWVDEEWPKRERGDPSRH [R7T]             3.6
1  VEKVLRRHVDEEWPKRERGDPSRH [W8H]            4.08
2  VEKVLRKWVDEEWPKRERGDPSRH [R7K]            3.29

Record protein stability index per entry; entries follow.
1. VEKVLPRWVDEEWPKRERGDPSRH [R6P]
2. VEKVLRRWVDMEWPKRERGDPSRH [E11M]

a:
1: 5.27; 2: 1.74

Record protein stability index per entry; entries follow.
1. AEKVLRRWVDEEWPKRERGDPSRH [V1A]
2. VEKVLRRWVDEEWPDRERGDPSRH [K15D]
3. VEKVLRRWVLEEWPKRERGDPSRH [D10L]
4. VEKVLRRWVDEEWPKRETGDPSRH [R18T]
5. VEKVLRRWVDEEWPKVERGDPSRH [R16V]
6. VIKVLRRWVDEEWPKRERGDPSRH [E2I]

a:
1: 4.29; 2: 3.17; 3: 3.29; 4: 2.96; 5: 2.49; 6: 1.72

Record protein stability index per entry; entries follow.
1. VEKVLLRWVDEEWPKRERGDPSRH [R6L]
2. VEKVLRRMVDEEWPKRERGDPSRH [W8M]

a:
2.57
3.69

Record protein stability index per entry; entries follow.
1. VEKVLRRWVDEEWPKRFRGDPSRH [E17F]
2. VEKVERRWVDEEWPKRERGDPSRH [L5E]
3. VEKVLRRWVDEEWPKRERGEPSRH [D20E]
4. VEKVLRRWVDEEWPKRERGDVSRH [P21V]
5. VEKALRRWVDEEWPKRERGDPSRH [V4A]
6. VEKVLRRWVDEEWEKRERGDPSRH [P14E]

a:
[2.01, 4.5, 2.63, 2.19, 2.89, 2.05]
